Please provide measured inhibition for the entries that follow.
measurementNotes: M. tuberculosis growth inhibition, HTS (AID 449762);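 further: bacterial growth assessed after seven days of incubation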
conditionSet: M. tuberculosis H37Rv growth inhibition, 7H9 media; at 25 µM; active compounds read high
Hit rate of the full screen: of about 330,000 compounds, about 1,900 (0.58%) were called active. About 4% were inconclusive and are not listed. A selection follows. Potency and affinity values are given separately.
One number for each entry, in %.

{"compound": "Cc1cccc(NS(=O)(=O)c2csc(C(N)=O)c2)c1C", "inhibition / %": -0.04}

Provide each entry's inhibition from the list below.
1. CCCn1c(=O)c(C(=O)Nc2ncccc2C)c(O)c2ccccc21
2. O=C(CN1C(=O)NC(c2ccccc2)(c2ccccc2)C1=O)N1CCCCC1
3. COc1cc(C(=O)N/C(=C\c2cn(S(=O)(=O)N(C)C)c3ccccc23)C(=O)N2CCCC2)cc(OC)c1OC
4. COc1ccc(OC)c(Nc2nc(-c3sc(N)nc3C)cs2)c1
5. Cn1cc(C(=O)c2ccccc2)cc1-c1nc2ccccc2n1C
6. O=C(O)CN=CC1=C(O)CC(c2ccccc2)CC1=O (stereo unspecified)
7. Cc1ccc2cccc(N)c2n1
8. Cc1cc(C)n2nc(N)c(N=Nc3ccc(Cl)cc3)c2n1

Response given:
[18.3, 3.83, 7.41, 65.1, 24.3, 4.73, 1.54, 5.04]

Please report inhibition for every entry that follows.
1. COC(=O)C1=C(C)N(CCCC(=O)O)C(=O)NC1c1ccc(Br)cc1 (stereo unspecified)
2. O=C(O/N=C\c1ccc(N2CCCCC2)c([N+](=O)[O-])c1)c1c(F)cccc1F

Response given:
[2.77, 2.52]

Provide the reported inhibition of each entry below, same order.
1. CC(C)(C)n1nnnc1C(c1ccc(Cl)cc1)N1CCCc2ccccc21 (stereo unspecified)
2. Nc1[nH]n2c(=O)cc(-c3ccccc3)nc2c1N=Nc1ccc(S(N)(=O)=O)cc1
3. Cc1cc(=O)oc2cc(Oc3ccc([N+](=O)[O-])cc3[N+](=O)[O-])ccc12

Response given:
-4.81
6.74
50.5

Please give inhibition for each item listed below.
1. COc1ccc(-c2noc(CCCC(=O)Nc3ccc(C(N)=O)cc3)n2)cc1
2. O=C(/C=C/c1ccccc1)NC1CC2CCC1C2 (stereo unspecified)
3. Cc1ccc2c(C)ccc(O)c2n1
4. CC(C)(C)C(=O)N1CCN(c2nc3ccc(Cl)cc3s2)CC1
5. CNC(=S)N(C)CCc1cc2c(c(OC)c1C=C1C(=O)NC(=O)NC1=O)OCO2
6. COc1ccc2[nH]c3c(Cl)ncnc3c2c1
7. CCCCn1c(CN2CCN(c3cccc(Cl)c3)CC2)nc2c1c(=O)[nH]c(=O)n2C
8. Cc1ccccc1-n1c2nc(=O)n(C)c(=O)c-2cc2ccccc21

Response given:
1. -3.01
2. -10.2
3. -1.61
4. 13.8
5. -4.55
6. -0.24
7. 62.7
8. 0.96

###

measurementNotes: M. tuberculosis growth inhibition, HTS (AID 449762);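 further: bacterial growth assessed after seven days of incubation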
conditionSet: M. tuberculosis H37Rv growth inhibition, 7H9 media; at 25 µM; active compounds read high
Among all 330,000 compounds or so, about 1,900 (0.58%) were called active. Not shown: some 4% with an inconclusive outcome. A selection follows. Measured potencies and affinities stand elsewhere.
metricName: inhibition (%)
Answers are plain numbers, in %.

Use the examples below as a reference point.
{"molecule": "COc1cc(OC)cc(C(=O)NC2CCCN(Cc3ccc(Cl)cc3)C2)c1 (stereo not drawn)", "inhibition, %": 7.21}
{"molecule": "Cc1cc(C)n(CCOc2ccc(Br)cc2)n1", "inhibition, %": 2.96}
{"molecule": "O=C1OC(CCl)CN1Cc1c(Cl)cccc1Cl (stereo not drawn)", "inhibition, %": -11.9}
{"molecule": "Clc1ccccc1COc1ccccc1-c1nnco1", "inhibition, %": 19.4}
{"molecule": "CC(C)(C)c1ccc(OCCC(=O)NNC(=O)c2ccccc2)cc1", "inhibition, %": -10.6}

Give me inhibition for each of these molecules, listed below.
1. Cc1c(CN(C)C)c2c(n1C)C(=O)c1ccc(Br)cc1-2
2. CC(/C=N\NC(=O)c1cc(C)oc1C)=C\c1ccccc1
3. Cc1ccc(CN(C(=O)c2ccco2)C2CCS(=O)(=O)C2)cc1 (stereo not drawn)
4. CN1CCN(CCCNC(=O)CCCOc2cc(=O)n(C)c3ccccc23)CC1

Response given:
1: -6.76; 2: 5.28; 3: -3.45; 4: -3.75

The following molecules each have a reported value; give each one's inhibition.
1. COc1ccc(C(NC(=O)c2cccc(F)c2)c2ccccc2)cc1 (stereo not drawn)
2. Cc1cc(C(=O)N/N=C/C(Cl)=C/c2ccccc2)c(C)o1
3. Cc1cc(Nc2ccccc2Cl)nc(-c2ccccc2O)n1
4. O=C(CC1(O)C(=O)N(Cc2ccccc2Cl)c2ccccc21)c1ccco1 (stereo not drawn)

Response given:
[-16.4, 2.89, 57.3, 7.75]
